# Tested System: T1, LIN7C, Q9NUP9
# T1 sequence (Q9NUP9 88-185, limits assumed, looked up): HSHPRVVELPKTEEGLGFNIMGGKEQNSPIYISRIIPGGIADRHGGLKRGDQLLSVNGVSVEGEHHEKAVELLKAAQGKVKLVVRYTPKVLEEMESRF
# Test Details: holdup assay
# Set-up: key: below the threshold = too weak to quantify, mostly under pKd 3.1 to 4
# Condition Description: plain residues with an end cap or a label only (N-terminal biotin on a linker: ado-ado)
pKd listing for selected binders.
Reported Endpoint: pKd

> print(dat)
                        binder  reported.endpoint  reported.measurement
1   EVEEFPETSV [TRPV3, Q8NET8]                pKd                  4.51
2  PLSPEQPTKL [TRIM50, Q86XT4]                pKd                  3.82

These entries and their values trace back to paper PMC9482650.
